System: CD34+ hematopoietic progenitor cells (myeloid colonies)
assay-notes: Colony formation assay, myeloid colonies
Assay type: cell-based, human
measurement-parameters: Homo sapiens, 336 h, read-out: mean IC50 for normal myeloid colony formation
outcome-measure: pIC50
Convention used: pIC50 is expressed as -log10 of the molar concentration.

Name the reported pIC50 value associated with the molecule Nc1nc(F)nc2c1ncn2[C@@H]1O[C@H](COP(=O)(O)O)[C@@H](O)[C@@H]1O [Fludarabine, fludarabine phosphate, reference compound]
6.00

* * *

Test system: CLL cells
assay-notes: MTS cytotoxicity assay on primary CLL cells
Assay type: cell-based
measurement-parameters: Homo sapiens, CLL cell, 72 h, five patients of the nucleosome ELISA set, 72 hours; read-out: mean ED50, fractional cytotoxicity by MTS
pEC50: −log10 of the molar value.
outcome-measure: pEC50

Name the reported pEC50 value associated with the molecule `Nc1nc(Cl)c2ncn(CCCCCB(O)O)c2n1`
~6.07

* * *

outcome-measure: IC50

Missing value: IC50, human hERG (Homo sapiens), entry `Nc1nc(Cl)c2ncn(CCCCCB(O)O)c2n1` . Fill in?
> 100 µM

* * *

System: CLL cells
assay-notes: MTS cytotoxicity assay on primary CLL cells
Assay type: cell-based
measurement-parameters: Homo sapiens, CLL cell, CLL samples with favorable risk cytogenetic aberrations, n=27; read-out: median MTS ED50
outcome-measure: pEC50
Convention used: pEC50 is expressed as -log10 of the molar concentration.

Name the reported pEC50 value associated with the molecule `Nc1nc(Cl)c2ncn(CCCCCB(O)O)c2n1`
6.79

* * *

Test system: normal PBMCs
assay-notes: [3H]-thymidine proliferation assay, mitogen-stimulated normal PBMCs
Format: cell-based, human
measurement-parameters: Homo sapiens, PBMC, 96 h, α-CD3, 96 hours; read-out: IC50 for suppression of mitogen-induced proliferation
outcome-measure: pIC50
Convention used: pIC50 is expressed as -log10 of the molar concentration.

Name the reported pIC50 value associated with the compound `Nc1nc(Cl)c2ncn(CCCCCB(O)O)c2n1`
4.48

* * *

Test system: CLL cells
assay-notes: MTS cytotoxicity assay on primary CLL cells
Format: cell-based
measurement-parameters: Homo sapiens, CLL cell, CLL samples with poor risk cytogenetic aberrations, n=5; read-out: median MTS ED50
outcome-measure: pEC50
Convention used: pEC50 is expressed as -log10 of the molar concentration.

Missing value: pEC50, CLL cells, entry `Nc1nc(Cl)c2ncn(CCCCCB(O)O)c2n1` . Fill in?
6.48
